target: recombinant human arginase 1 (Homo sapiens, UniProt P05089); test: Arginase 1 inhibition, UPLC-MS measurement of ARG to ORN conversion in HEK293T cell lysate; conditions: read-out: % of control activity at the corresponding [Inhibitor] ± SE, arginase 1; ARG 100 µM; inhibitor 1,000 µM; mean of two experiments;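 further: arginase 1–expressing HEK293T lysate at 0.05 mg/mL in pH 7.4 phosphate buffer, inhibitor preincubated 5 min with enzyme, then reaction started by adding ARG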
Sequence (P05089 whole entry): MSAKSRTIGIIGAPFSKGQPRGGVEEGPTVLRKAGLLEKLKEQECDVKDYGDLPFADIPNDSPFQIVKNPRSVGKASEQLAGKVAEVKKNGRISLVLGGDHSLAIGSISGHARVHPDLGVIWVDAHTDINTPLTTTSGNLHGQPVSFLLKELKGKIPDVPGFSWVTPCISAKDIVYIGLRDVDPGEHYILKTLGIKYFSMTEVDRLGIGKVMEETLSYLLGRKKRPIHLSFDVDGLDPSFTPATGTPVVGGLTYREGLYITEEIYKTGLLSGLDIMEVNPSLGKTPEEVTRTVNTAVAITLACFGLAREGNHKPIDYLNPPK
OBSERVATION_TYPE: remaining activity at 1000 µM (%)

Past entries and their recorded results:
MOLECULAR_STRING | DISPLAY_UNIT | remaining activity at 1000 µM
NCCCCN=C(N)N | % | 84
O=C(O)[C@@H]1CCCN1 | % | 104

A: [H]/N=C(/NC)NCCC[C@H](N)C(=O)O
B: NCCCC[C@H](N)C(=O)O
INPUT: remaining activity at 1000 µM comparison. Which is larger, A or B ? Provide the label of your selected option as the answer.
OUTPUT: A
(A: 116%, B: 56%)

* * *

biological target: recombinant human arginase 1 (Homo sapiens); experiment: Arginase 1 inhibition, UPLC-MS measurement of ARG to ORN conversion in HEK293T cell lysate; conditions: read-out: % of control activity at the corresponding [Inhibitor] ± SE, arginase 1; ARG 100 µM; inhibitor 100 µM; mean of two experiments
OBSERVATION_TYPE: remaining activity at 100 µM (%)

MOLECULAR_STRING | MEASURED_TARGET | DISPLAY_UNIT | remaining activity at 100 µM
[H]/N=C(/NC)NCCC[C@H](N)C(=O)O | recombinant human arginase 1 (Homo sapiens) | % | 95
O=C(O)[C@@H]1CCCN1 | recombinant human arginase 1 (Homo sapiens) | % | 110
NCCCC[C@H](N)C(=O)O | recombinant human arginase 1 (Homo sapiens) | % | 105
NCCCCN=C(N)N | recombinant human arginase 1 (Homo sapiens) | % | 110

* * *

biological target: recombinant human arginase 2 (Homo sapiens); test: Arginase 2 inhibition, UPLC-MS measurement of ARG to ORN conversion in HEK293T cell lysate; details: read-out: % of control activity at the corresponding [Inhibitor] ± SE, arginase 2; ARG 2 mM; inhibitor 10 µM; mean of two experiments
OBSERVATION_TYPE: remaining activity at 10 µM (%)

MOLECULAR_STRING | DISPLAY_UNIT | remaining activity at 10 µM
NCCCCN=C(N)N | % | 96
O=C(O)[C@@H]1CCCN1 | % | 97
[H]/N=C(/NC)NCCC[C@H](N)C(=O)O | % | 109
NCCCC[C@H](N)C(=O)O | % | 82

* * *

Molecular target: recombinant human arginase 2 (Homo sapiens, UniProt P78540)
Sequence (P78540 23-354): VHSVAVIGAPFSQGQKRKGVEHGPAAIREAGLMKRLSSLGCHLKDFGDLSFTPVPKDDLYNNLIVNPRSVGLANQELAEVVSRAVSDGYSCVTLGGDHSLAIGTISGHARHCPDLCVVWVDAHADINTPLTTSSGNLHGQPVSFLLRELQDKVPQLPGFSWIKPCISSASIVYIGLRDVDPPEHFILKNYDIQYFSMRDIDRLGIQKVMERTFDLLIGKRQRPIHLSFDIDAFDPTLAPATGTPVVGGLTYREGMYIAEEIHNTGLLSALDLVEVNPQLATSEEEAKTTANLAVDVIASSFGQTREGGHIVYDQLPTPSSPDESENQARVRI
Assay: Arginase 2 inhibition, UPLC-MS measurement of ARG to ORN conversion in HEK293T cell lysate;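 further: HEK293T lysate carrying arginase 2 at 0.1 mg/mL in 0.05 M phosphate buffer pH 7.4, inhibitor preincubated with enzyme 5 min before ARG addition started the reaction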
OBSERVATION_TYPE: pKi
As a rule, pKi stands for the negative log10 of the concentration, concentration in M.

INPUT: Given the molecule NCCCC[C@H](N)C(=O)O [LYS, lysine] , write its reported pKi.
OUTPUT: 3.30

// data source = paper PMC5829263
